Test system: BT-474
Test: viability inhibition at highest dose (% inhibition); higher = more growth inhibition
Conditions: 4-OH-tamoxifen in medium 1 µM; 72 h
Measurement label: viability inhibition at highest dose

- C#Cc1cccc(Nc2ncnc3cc(OC)c(OCCCCCCC(=O)NO)cc23)c1 [CUDC-101] (drug 10000 nM): 97
- CO[C@H](C(=O)[C@@H](O)[C@@H](C)O)[C@@H]1Cc2cc3cc(O[C@H]4C[C@@H](O[C@@H]5C[C@@H](O)[C@H](O)[C@@H](C)O5)[C@H](O)[C@@H](C)O4)c(C)c(O)c3c(O)c2C(=O)[C@H]1O[C@H]1C[C@@H](O[C@@H]2C[C@@H](O)[C@@H](O[C@@H]3C[C@](C)(O)[C@H](O)[C@@H](C)O3)[C@@H](C)O2)[C@H](O)[C@@H](C)O1 [Plicamycin (Mithramycin A)] (drug 10000 nM): 95
- C=C1C[C@@H]2[C@H](CC[C@]3(C)C(=O)CC[C@@H]23)[C@@]2(C)C=CC(=O)C=C12 [Exemestane] (drug 10000 nM): 0.09
- COC(=O)c1ccc2c(c1)NC(=O)/C2=C(\Nc1ccc(N(C)C(=O)CN2CCN(C)CC2)cc1)c1ccccc1 [Nintedanib (BIBF 1120)] (drug 10000 nM): 24.8
- Cc1cc(Nc2nc(N[C@@H](C)c3ncc(F)cn3)ncc2Cl)[nH]n1 [AZD1480] (drug 1000 nM): 8
- O=P1(NCCCl)OCCCN1CCCl (stereo not given) [Ifosfamide] (drug 10000 nM): 1.1
- CN1CCN(c2nc(C3=C(c4c[nH]c5ccccc45)C(=O)NC3=O)c3ccccc3n2)CC1 [Sotrastaurin] (drug 10000 nM): 48.9
- Cn1cc(C2=C(c3cn(C4CCN(Cc5ccccn5)CC4)c4ccccc34)C(=O)NC2=O)c2ccccc21 [Enzastaurin] (drug 10000 nM): -20.9
- COc1cc2c(Oc3ccc(NC(=O)C4(C(=O)Nc5ccc(F)cc5)CC4)cc3F)ccnc2cc1OCCCN1CCOCC1 [Foretinib (Foretinib)] (drug 1000 nM): 44.6
- CO[C@@H](C(=O)N1Cc2[nH]nc(NC(=O)c3ccc(N4CCN(C)CC4)cc3)c2C1)c1ccccc1 (drug 10000 nM): -36.3
- C[C@@H]1C[C@H]2[C@@H]3CCC4=CC(=O)C=C[C@]4(C)[C@@]3(F)[C@@H](O)C[C@]2(C)[C@@]1(O)C(=O)CO [Dexamethasone (Decadron)] (drug 10000 nM): -20.8
- CNC(=O)c1ccc(N2C(=S)N(c3ccc(C#N)c(C(F)(F)F)c3)C(=O)C23CCC3)cc1F [RD162] (drug 10000 nM): -3.06
- Nc1nc(Cl)nc2c1ncn2[C@H]1C[C@H](O)[C@@H](CO)O1 [Cladribine] (drug 1000 nM): -9.47
- CC(=O)Nc1cccc(-n2c(=O)n(C3CC3)c(=O)c3c(Nc4ccc(I)cc4F)n(C)c(=O)c(C)c32)c1 (drug 250 nM): 18.2
- COc1cc([C@@H]2c3cc4c(cc3[C@@H](O[C@@H]3O[C@@H]5CO[C@@H](C)O[C@H]5[C@H](O)[C@H]3O)[C@H]3COC(=O)[C@H]23)OCO4)cc(OC)c1O [Etoposide] (drug 10000 nM): 27.7

---

Test system: BT-474 Tam2
Assay: relative IC50 (midpoint of fitted logistic curve, plateau may be below 50% inhibition; CellTiter-Glo viability); higher = less potent
Conditions: 4-OH-tamoxifen in medium 1 µM; 72 h
Reported relative IC50 values for the following molecules.
Measurement label: relative IC50

- COc1cccc2cc(-c3nc([C@H]4CC[C@H](C(=O)O)CC4)n4ncnc(N)c34)[nH]c12 [OSI-027]: 338 nM
- Nc1nc(Cl)nc2c1ncn2[C@H]1C[C@H](O)[C@@H](CO)O1 [Cladribine]: > 1000 nM
- CC(=O)[C@]1(O)Cc2c(O)c3c(c(O)c2[C@@H](O[C@H]2C[C@H](N)[C@H](O)[C@H](C)O2)C1)C(=O)c1ccccc1C3=O [Idarubicin]: 371 nM
- O=C(O)CC[C@H]1CC[C@@](c2cc(F)ccc2F)(S(=O)(=O)c2ccc(Cl)cc2)CC1 [MK-0752]: > 1000 nM
- CC[C@H](CO)Nc1nc(NCc2ccccc2)c2ncn(C(C)C)c2n1 [Seliciclib (Roscovitine)]: > 10000 nM
- COc1cc(Nc2ncc3c(n2)-c2ccc(Cl)cc2C(c2c(F)cccc2OC)=NC3)ccc1C(=O)O [Alisertib (MLN8237)]: > 10000 nM
- CS(=O)(=O)c1ccc(C(=O)Nc2ccc(Cl)c(-c3ccccn3)c2)c(Cl)c1 [Vismodegib]: > 10000 nM
- C[C@H]1C[C@@H]2[C@H]([C@@H](O)C[C@@]3(C)[C@H]2CC[C@]3(O)C(=O)CO)[C@@]2(C)C=CC(=O)C=C12 [Methylprednisolone]: > 10000 nM
- O=C(O)CCCc1ccc(N(CCCl)CCCl)cc1 [Chlorambucil]: > 10000 nM

---

Reported relative IC50 values for the following molecules.
Test system: T-47D
Assay: relative IC50 (midpoint of fitted logistic curve, plateau may be below 50% inhibition; CellTiter-Glo viability); higher = less potent
Details: 4-OH-tamoxifen in medium 0 µM; 72 h
Measurement label: relative IC50

- CNC(=O)c1ccc(N2C(=S)N(c3ccc(C#N)c(C(F)(F)F)c3)C(=O)C2(C)C)cc1F [Enzalutamide (MDV 3100)]: > 10 µM
- O=C1CCC(N2C(=O)c3ccccc3C2=O)C(=O)N1 (stereo unspecified) [Thalidomide]: > 10 µM
- C[C@@H]1C[C@H]2[C@@H]3CCC4=CC(=O)C=C[C@]4(C)[C@@]3(F)[C@@H](O)C[C@]2(C)[C@@]1(O)C(=O)CO [Dexamethasone (Decadron)]: > 10 µM
- C/C(=C\c1csc(C)n1)[C@@H]1C[C@@H]2O[C@]2(C)CCC[C@H](C)[C@H](O)[C@@H](C)C(=O)C(C)(C)[C@@H](O)CC(=O)N1 [Ixabepilone]: 0.415 µM
- COCC[n+]1c2c(n(Cc3cnccn3)c1C)C(=O)c1ccccc1C2=O [YM155]: 0.0475 µM
- O=S(=O)(c1cccc2cnccc12)N1CCCNCC1 [Fasudil (HA-1077)]: > 50 µM
- c1cc(CN2CCCNCCNCCCNCC2)ccc1CN1CCCNCCNCCCNCC1 [Plerixafor]: > 2.5 µM
- N.N.[Cl][Pt][Cl] [Cisplatin]: > 10 µM
- Cc1c(CN2CCN(C(=O)[C@H](C)O)CC2)sc2c(N3CCOCC3)nc(-c3cnc(N)nc3)nc12 [GDC-0980]: 0.199 µM
- CC(C)C(=O)Nc1ccc([N+](=O)[O-])c(C(F)(F)F)c1 [Flutamide]: > 10 µM
- CCC1(c2ccc(N)cc2)CCC(=O)NC1=O (stereo unspecified) [Aminoglutethimide]: > 10 µM

---

Tested on: BT-474
Test: drug sensitivity score (DSS) (DSS (dimensionless)); higher = more sensitive; extreme values may be limits of the assay
Conditions: 4-OH-tamoxifen in medium 0 µM; 72 h
Measurement label: drug sensitivity score

* C[C@@H](Oc1cc(-c2cnn(C3CCNCC3)c2)cnc1N)c1c(Cl)ccc(F)c1Cl [Crizotinib] | 0
* O=C1CCC(N2C(=O)c3ccccc3C2=O)C(=O)N1 (stereo not given) [Thalidomide] | 0
* COc1cc2ncnc(Nc3ccc(F)c(Cl)c3)c2cc1OCCCN1CCOCC1 [Gefitinib] | 9.4
* C/C(=C\c1csc(C)n1)[C@@H]1C[C@@H]2O[C@]2(C)CCC[C@H](C)[C@H](O)[C@@H](C)C(=O)C(C)(C)[C@@H](O)CC(=O)O1 [Patupilone (Epothilone B)] | 9.82
* C[C@@H]1C[C@H]2[C@@H]3CCC4=CC(=O)C=C[C@]4(C)[C@@]3(F)[C@@H](O)C[C@]2(C)[C@@]1(O)C(=O)CO [Dexamethasone (Decadron)] | 0
* CCC/C=C/C=C/C(=O)O[C@H]1/C(=C/C(=O)OC)C[C@H]2C[C@H]([C@@H](C)O)OC(=O)C[C@H](O)C[C@@H]3C[C@H](OC(C)=O)C(C)(C)[C@](O)(C[C@@H]4C/C(=C/C(=O)OC)C[C@H](/C=C/C(C)(C)[C@]1(O)O2)O4)O3 [Bryostatin 1] | 0
* COc1cc(Nc2ncc3c(n2)-c2ccc(Cl)cc2C(c2c(F)cccc2OC)=NC3)ccc1C(=O)O [Alisertib (MLN8237)] | 0.464
* COc1cc2c(Oc3ccc(NC(=O)C4(C(=O)Nc5ccc(F)cc5)CC4)cc3F)ccnc2cc1OCCCN1CCOCC1 [Foretinib (Foretinib)] | 0
* CCC1=C[C@@H]2CN(C1)Cc1c([nH]c3ccccc13)[C@@](C(=O)OC)(c1cc3c(cc1OC)N(C)[C@H]1[C@@](O)(C(=O)OC)[C@H](OC(C)=O)[C@]4(CC)C=CCN5CC[C@]31[C@@H]54)C2 [Vinorelbine (tartrate)] | 13.8
* COC1=C2C[C@@H](C)C[C@H](OC)[C@H](O)[C@@H](C)/C=C(\C)[C@H](OC(N)=O)[C@@H](OC)/C=C\C=C(/C)C(=O)NC(=CC1=O)C2=O [Geldanamycin] | 9.69
* C=C1C[C@@H]2[C@H](CC[C@]3(C)C(=O)CC[C@@H]23)[C@@]2(C)C=CC(=O)C=C12 [Exemestane] | 0
* C=CCn1c(=O)c2cnc(Nc3ccc(N4CCN(C)CC4)cc3)nc2n1-c1cccc(C(C)(C)O)n1 [MK-1775] | 2.85
* S=P(N1CC1)(N1CC1)N1CC1 [Thio-TEPA] | 0
* CC(C)C(=O)Nc1ccc([N+](=O)[O-])c(C(F)(F)F)c1 [Flutamide] | 0
* O=P(O)(NCCCl)NCCCl [Ifosfamide mustard] | 0
* C=CC(=O)N1CCC[C@@H](n2nc(-c3ccc(Oc4ccccc4)cc3)c3c(N)ncnc32)C1 | 18.1
* CN1CCN(c2nc(C3=C(c4c[nH]c5ccccc45)C(=O)NC3=O)c3ccccc3n2)CC1 [Sotrastaurin] | 0
* CC(=O)Nc1ccc(C(=O)Nc2ccccc2N)cc1 [Tacedinaline (CI-994)] | 0
* CO[C@@]12[C@H](COC(N)=O)C3=C(C(=O)C(C)=C(N)C3=O)N1C[C@@H]1N[C@@H]12 [Mitomycin C] | 0
* O=C(Cc1ccc(-c2ccc(OCCN3CCOCC3)cc2)cn1)NCc1ccccc1 [KX2-391] | 12.3

Data provenance is the supplement of paper PMC4932681.
